For each record, write down the corresponding MFI (A488), IgG + ICOSL.
Molecular target: T1, human ICOS (human, UniProt Q9Y6W8 21-199)
T1 construct: The cell that carries it is named under assay; also called huICOS; CD278
T1 sequence: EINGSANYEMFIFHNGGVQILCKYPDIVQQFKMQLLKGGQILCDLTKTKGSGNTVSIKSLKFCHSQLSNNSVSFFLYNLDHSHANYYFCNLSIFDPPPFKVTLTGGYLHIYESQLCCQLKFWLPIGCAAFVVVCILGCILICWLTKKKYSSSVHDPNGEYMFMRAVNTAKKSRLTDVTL
Assay: flow cytometry, ICOS+ CHO cells, 120 nM anti-ICOS IgG pre-bound, then ICOSL (competitor) 120 nM
Reply with the number and its unit after it.

Example cases with answers are listed next.
Molecule 14 (muIgG of 009) (antibody, V domains shown, Mouse IgG purified from hybridoma; also called ICOS (009); clone 009) VH: EVRLDETGGGVVQPGRPMELSCVASGFTFSDYWMNWVRQSPEKGLEWVAQIRNKPYNYETYYSDSVKGRFTISRDDSKSRVYLQMNNLRAEDMGIYYCTWPRLRSSDWHFDVWGAGTTVTVSS VL: AIQMTQSPSSLSASLGGEVTITCKASQDINKNIAWYQHKPGRGPRLLIWYTSTLQTGIPSRFSGSGSGRDYSFTISNLEPEDFATYYCLQFDNLYTFGSGTKLEIR ... 7000 MFI
Molecule 20 (rbIgG of 1143) (antibody, V domains shown, Rabbit IgG format; also called ICOS (1143); clone 1143) VH: QSLEESGGDLVKPGASLTLTCKASGFDFSSAYDMCWVRQAPGKGLEWIGCVYYGDGITYYATWAKGRFTISKTSSTTVPLQMTSLTAADTATYFCARGAFLGSSYYLSLWGQGTLVTVSS VL: AIDMTQTPASVEAAVGGTVTINCQASENIYNWLAWYQQKPGQPPKLLIYDASKLASGVPSRFSASGSGTQFTLTISAVECADAATYYCQQAYTYGNIDNAFGGGTEVVVSG ... 6340 MFI

Now for the binder whose MFI (A488), IgG + ICOSL we want.
Inquiry: Need MFI (A488), IgG + ICOSL, item Molecule 8 (rbIgG of 1167) (antibody, V domains shown, Rabbit IgG format, from transgenic rabbit; also called ICOS (1167); clone 1167) VH: EVRLLESGGGLVQPGGSLRLSCAASGFTFNTYAVHWVRQAPGKGLEWVSGIGGSGVRTYYADSVKGRLTISRDNSKNTLYLQMNSLRAEDTAIYFCAKDIYVADFTGYAFDIWGQGTMVTVSS VL: DIQMTQSPSSVSASVGDRVTITCRASQGINNFLAWYQQKPGKAPKLLIYDASSLQSGVPSRFAGSGSGTDFTLTISSLQPEDFATYYCQQYNFYPLTFGGGTMVEIKR
Reply text: 7660 MFI
